Overview of reported recovery at 60 min, 50 μM across a group of compounds:
- run_description: CaCo-2 permeability assay
- Assay type: in vitro ADME
- protocol_conditions: human, Caco-2, A-B direction, 50 μM, 60 min, 37° C., replicates 1 and 2
Give the value, in units of %, as a plain number.

CC(C)(C)C(=O)NCCCC(=O)OCCCN1CCOCC1 [CXB-724] ... 80.3

Input line: // lookup recovery at 60 min, 50 μM for CC(C)(C)C(=O)NCCCC(=O)O [CXB-722, reference compound]
Output line: 110

---

Recorded Papp A→B at 60 min, 50 μM, one value per entry.
- run_description: CaCo-2 permeability assay
- Format: in vitro ADME
- protocol_conditions: human, Caco-2, A-B direction, mean of duplicate; read-out: Mean Papp
Respond numerically; units are ×10⁻⁶ cm/s and should not be typed.

Input line: Fill blank: measured Papp A→B at 60 min, 50 μM of the compound CC(C)(C)C(=O)NCCCC(=O)O [CXB-722, reference compound] is ____.
Output line: 1.07

Input line: # Papp A→B at 60 min, 50 μM lookup, item CC(C)(C)C(=O)NCCCC(=O)OCCCN1CCOCC1
Output line: 11.4

---

- run_description: CaCo-2 permeability assay
- Assay type: in vitro ADME
- protocol_conditions: human, Caco-2, B-A direction, 50 μM, 60 min, 37° C., replicates 1 and 2
recorded_endpoint: recovery at 60 min, 50 μM
Could you kindly put the unit after your number?

Input line: Please give the measured recovery at 60 min, 50 μM for this molecule: CC(C)(C)C(=O)NCCCC(=O)O [CXB-722, reference compound]
Output line: 81.6%

---

- run_description: CaCo-2 permeability assay
- Format: in vitro ADME
- protocol_conditions: human, Caco-2, B-A direction, mean of duplicate; read-out: Mean Papp
recorded_endpoint: Papp B→A at 60 min, 50 μM

Input line: Dear colleague, I am looking for the recorded Papp B→A at 60 min, 50 μM of the following compound: CC(C)(C)C(=O)NCCCC(=O)OCCCN1CCOCC1
Output line: 11.9 ×10⁻⁶ cm/s

Input line: Fill in: Papp B→A at 60 min, 50 μM of CC(C)(C)C(=O)NCCCC(=O)O [CXB-722, reference compound] is ___
Output line: 0.568 ×10⁻⁶ cm/s

---

- run_description: CaCo-2 permeability assay
- Type: in vitro ADME
- protocol_conditions: human, Caco-2; ratio of mean Papp; read-out: B-A/A-B Papp Ratio
recorded_endpoint: efflux ratio at 60 min, 50 μM
Write no unit; give the number alone.

CC(C)(C)C(=O)NCCCC(=O)O [CXB-722, reference compound] ... 0.533

# next molecule below
Input line: Form field: reported efflux ratio at 60 min, 50 μM of CC(C)(C)C(=O)NCCCC(=O)OCCCN1CCOCC1
Output line: 1.05

---

Papp A→B at 60 min, 50 μM listing for selected compounds.
- run_description: CaCo-2 permeability assay
- Type: in vitro ADME
- protocol_conditions: human, Caco-2, A-B direction, 50 μM, 60 min, 37° C., replicates 1 and 2; read-out: Papp (apparent permeability coefficient)
Write the numeric value and append its unit.

CC(C)(C)C(=O)NCCCC(=O)OCCCN1CCOCC1 [CXB-724] ... 11 ×10⁻⁶ cm/s

Continue with the next compound.
Input line: Report Papp A→B at 60 min, 50 μM for CC(C)(C)C(=O)NCCCC(=O)O [CXB-722, reference compound] please.
Output line: 1.3 ×10⁻⁶ cm/s
